method notes: Percentage bioactive sulfur contained in hydrogen sulfide prodrugs
Format: physicochemical
test parameters: sulfur capable of being converted into hydrogen sulfide in vivo
// reported % Bioactive sulfur (w/w) for each item listed
endpoint name: % Bioactive sulfur (w/w)

compound="c1ccc(CSSSCc2ccccc2)cc1 [Dibenzyl trisulfide]" endpoint_name="% Bioactive sulfur (w/w)" readout_value="11.5 % (w/w)"
compound="C=CCSSCC=C [Diallyl disulfide]" endpoint_name="% Bioactive sulfur (w/w)" readout_value="45.1 % (w/w)"
compound=O=C(Cc1ccccc1Nc1c(Cl)cccc1Cl)Oc1ccc(-c2cc(=S)ss2)cc1 endpoint_name="% Bioactive sulfur (w/w)" readout_value="6.3 % (w/w)"
compound=CCCc1nn(C)c2c(=O)[nH]c(-c3cc(S(=O)(=O)N4CCN(CC(=O)Oc5ccc(-c6cc(=S)ss6)cc5)CC4)ccc3OCC)nc12 endpoint_name="% Bioactive sulfur (w/w)" readout_value="3.5 % (w/w)"
compound=COc1ccc2c(c1)c(CC(=O)Oc1ccc(-c3cc(=S)ss3)cc1)c(C)n2C(=O)c1ccc(Cl)cc1 endpoint_name="% Bioactive sulfur (w/w)" readout_value="5.6 % (w/w)"
compound="COc1ccc2cc(C(C)C(=O)Oc3ccc(C(N)=S)cc3)ccc2c1 (stereo not shown)" endpoint_name="% Bioactive sulfur (w/w)" readout_value="8.8 % (w/w)"
compound="C[S+]([O-])CCCCN=C=S (stereo not shown)" endpoint_name="% Bioactive sulfur (w/w)" readout_value="18 % (w/w)"
compound="S [NaHS, sodium hydrogen sulfide]" endpoint_name="% Bioactive sulfur (w/w)" readout_value="57 % (w/w)"
compound=[Na+].[Na+].[S-2] endpoint_name="% Bioactive sulfur (w/w)" readout_value="41 % (w/w)"
compound="C=CCSSSCC=C [Diallyl trisulfide]" endpoint_name="% Bioactive sulfur (w/w)" readout_value="53.9 % (w/w)"
compound="NC(=S)c1ccc(O)cc1 [4-hydroxythiobenzamide]" endpoint_name="% Bioactive sulfur (w/w)" readout_value="20.9 % (w/w)"
compound=O=C(CCC/C=C\C[C@@H]1[C@@H](CC[C@@H](O)CCc2ccccc2)[C@H](O)C[C@@H]1O)Oc1ccc(-c2cc(=S)ss2)cc1 endpoint_name="% Bioactive sulfur (w/w)" readout_value="5.3 % (w/w)"
compound="C1COCCN1.COc1ccc(P(=S)(S)N2CCOCC2)cc1 (stereo not shown)" endpoint_name="% Bioactive sulfur (w/w)" readout_value="8.5 % (w/w)"
